# EXPERIMENT DESCRIPTION: Pharmacokinetics of compounds 03043 and 03044 in male SD rats
# Format: in vivo
# RUN CONDITIONS: rat, Intravenous 1 mg/kg, plasma
EXPERIMENTAL ENDPOINT: AUC(0-t) (ng·h/mL)

Fill blank: measured AUC(0-t) of the molecule Cc1cc(N2CCCc3cc(Cl)sc3C2)cc(C)c1NC(=O)CC(C)(C)C is ____.
1040

Fill blank: measured AUC(0-t) of the molecule Cc1cc(N2CCCc3sc(Cl)cc3C2)cc(C)c1NC(=O)CC(C)(C)C is ____.
957

====

# EXPERIMENT DESCRIPTION: Pharmacokinetics of compounds 03043 and 03044 in male SD rats
# Assay type: in vivo
# RUN CONDITIONS: rat, po, Gavage 5 mg/kg, plasma
EXPERIMENTAL ENDPOINT: AUC(0-inf) (ng·h/mL)

Fill blank: measured AUC(0-inf) of the compound Cc1cc(N2CCCc3sc(Cl)cc3C2)cc(C)c1NC(=O)CC(C)(C)C is ____.
1110

Fill blank: measured AUC(0-inf) of the compound Cc1cc(N2CCCc3cc(Cl)sc3C2)cc(C)c1NC(=O)CC(C)(C)C is ____.
889

====

# EXPERIMENT DESCRIPTION: Plasma and brain concentration / cerebral blood ratio (BBB penetration) in male SD rats after single oral administration
# Format: in vivo
# RUN CONDITIONS: rat, plasma, 8 h after single oral administration 5 mg/kg, read-out: Plasma concentration
EXPERIMENTAL ENDPOINT: concentration at 8 h (ng/mL)

(1) Cc1cc(N2CCCc3sc(Cl)cc3C2)cc(C)c1NC(=O)CC(C)(C)C
(2) Cc1cc(N2CCCc3cc(Cl)sc3C2)cc(C)c1NC(=O)CC(C)(C)C
Of the two listed items, which has the higher concentration at 8 h? First: 1 Second: 2 Return value: the label identifying the chosen record.
2
(2: 41.3 ng/mL, 1: 20.8 ng/mL)

====

# EXPERIMENT DESCRIPTION: Plasma and brain concentration / cerebral blood ratio (BBB penetration) in male SD rats after single oral administration
# Format: in vivo
# RUN CONDITIONS: rat, brain/plasma, 1 h after single oral administration 5 mg/kg
EXPERIMENTAL ENDPOINT: Kp at 1 h

Fill blank: measured Kp at 1 h of the molecule Cc1cc(N2CCCc3cc(Cl)sc3C2)cc(C)c1NC(=O)CC(C)(C)C is ____.
2.2

Fill blank: measured Kp at 1 h of the molecule Cc1cc(N2CCCc3sc(Cl)cc3C2)cc(C)c1NC(=O)CC(C)(C)C is ____.
2.4

====

# SYSTEM TESTED: KCNQ2 potassium channel (CHO-KCNQ2 cells) (Homo sapiens (Human), UniProt O43526)
# Sequence (O43526 whole entry): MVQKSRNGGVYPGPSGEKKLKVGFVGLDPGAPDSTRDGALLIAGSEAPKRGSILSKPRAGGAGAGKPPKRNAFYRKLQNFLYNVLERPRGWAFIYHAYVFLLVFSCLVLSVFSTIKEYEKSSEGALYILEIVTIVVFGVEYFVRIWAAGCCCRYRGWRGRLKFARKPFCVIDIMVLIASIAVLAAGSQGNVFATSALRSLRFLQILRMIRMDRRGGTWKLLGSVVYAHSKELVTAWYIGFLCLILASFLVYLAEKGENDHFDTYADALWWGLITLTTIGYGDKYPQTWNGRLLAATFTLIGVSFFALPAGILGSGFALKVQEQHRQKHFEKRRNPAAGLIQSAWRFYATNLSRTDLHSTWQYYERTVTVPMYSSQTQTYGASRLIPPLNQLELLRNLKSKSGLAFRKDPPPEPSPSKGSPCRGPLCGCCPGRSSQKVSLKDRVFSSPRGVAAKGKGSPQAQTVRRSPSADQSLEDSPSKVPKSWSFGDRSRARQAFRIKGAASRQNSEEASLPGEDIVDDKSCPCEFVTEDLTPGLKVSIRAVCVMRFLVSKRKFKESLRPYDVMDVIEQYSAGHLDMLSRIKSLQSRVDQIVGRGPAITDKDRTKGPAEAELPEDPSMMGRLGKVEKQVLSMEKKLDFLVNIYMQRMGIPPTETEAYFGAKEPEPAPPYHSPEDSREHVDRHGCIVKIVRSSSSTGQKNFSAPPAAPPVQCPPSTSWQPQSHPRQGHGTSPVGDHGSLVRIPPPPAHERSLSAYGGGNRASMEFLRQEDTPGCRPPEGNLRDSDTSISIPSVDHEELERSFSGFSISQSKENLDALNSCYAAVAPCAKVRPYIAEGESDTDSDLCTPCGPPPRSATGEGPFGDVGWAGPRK
# EXPERIMENT DESCRIPTION: Activity test of potassium ion channel opener (FDSS/μCELL detection, FluxOR potassium ion channel assay)
# RUN CONDITIONS: CHO-KCNQ2 cells, FluxOR fluorescence, FDSS/μCELL
pEC50: −log10 of the molar value.
EXPERIMENTAL ENDPOINT: pEC50

The examples below pair each entry with its known result.
Recall the recorded pEC50 for Cc1cc(N2CCCc3sc(Cl)cc3C2)cc(C)c1NC(=O)CC(C)(C)C with KCNQ2 potassium channel (CHO-KCNQ2 cells) (Homo sapiens (Human), UniProt O43526) and state it.
7.64

Recall the recorded pEC50 for Cc1cc(N2CCCc3cccnc3C2)cc(C)c1NC(=O)CC(C)(C)C with KCNQ2 potassium channel (CHO-KCNQ2 cells) (Homo sapiens (Human), UniProt O43526) and state it.
4.83

Recall the recorded pEC50 for Cc1cc(N2CCCc3ccsc3C2)cc(C)c1NC(=O)CC(C)(C)C with KCNQ2 potassium channel (CHO-KCNQ2 cells) (Homo sapiens (Human), UniProt O43526) and state it.
7.06

(1) Cc1cc2c(s1)CCCCN2c1cc(C)c(NC(=O)CC(C)(C)C)c(C)c1
(2) Cc1cc(N2CCc3cc(F)ccc3C2)cc(C)c1NC(=O)CC(C)(C)C [Compound B, reference compound]
(3) Cc1ccc2c(c1)COCCN2c1cc(C)c(NC(=O)CC(C)(C)C)c(C)c1
Given 3 compounds, produce a descending ranking by pEC50. Provide the labels, sequenced as the question asks.
3, 2, 1
(3: 7.31, 2: 7.01, 1: 6.39)

(A) Cc1cc(N2CCCc3cc(Cl)sc3C2)cc(C)c1NC(=O)CC(C)(C)C
(B) O=C(Nc1ccc(Cl)nc1)c1ccc(F)cc1 [ZTZ240, reference compound]
(C) Cc1cc(N2CCCc3sccc3C2)cc(C)c1NC(=O)CC(C)(C)C
Task for the reader: rank each entry by its pEC50, from the minimum upward. Provide the labels, sequenced as the question asks.
B, C, A
